Test system: P. falciparum 3D7 growth, pLDH absorbance
Test: blood-stage malaria parasite growth potency – strain 3D7, dose response (AID 2305)
Measure Name: IC50 (nM)
Numbers only; they are read as nM.

Find the recorded IC50 belonging to `C[C@H](NC(=O)C1CCCC1)C(=O)Nc1ccc(-c2ccc(-c3nc4ccc(C(F)(F)F)cc4[nH]3)cc2)cc1` and report it.
270

Would you kindly repeat that for `Cc1cc2c(cc1Cl)N(C(=O)Nc1cc(F)cc(-c3cncnc3)c1)CC2` ?
380

Would you kindly repeat that for `COc1cccc2c(NN=Cc3ccccc3[N+](=O)[O-])ccnc12` ?
590

Would you kindly repeat that for `C[C@@H](CC1CCCCC1)NCc1ccccc1O` ?
930

Would you kindly repeat that for `c1cc(-c2ccc(CNC3CC3)cc2)cc(-c2nc3ccccc3[nH]2)c1` ?
1660

Would you kindly repeat that for `CC(=NNC(=S)NCc1ccco1)c1ccccn1` ?
250

Would you kindly repeat that for `c1ccc(CCNc2nc(NCC(c3ccccc3)c3ccccc3)c3[nH]cnc3n2)cc1` ?
620

Would you kindly repeat that for CN1CCC(Oc2ccc(CN3CC[C@H](NC(=O)c4cc(F)cc(F)c4)C3)c3ccccc23)C1 (stereo not given in full) ?
840

Would you kindly repeat that for CN1CCCC(OC(=O)c2ccccc2)C1 (stereo not given) ?
760

Would you kindly repeat that for `O=C(O)c1ccc(-c2c[nH]c3ncc(-c4ccc(Cl)cc4)cc23)cc1` ?
730
